Where these numbers come from: patent US8686048B2

Molecular target: h-DHODH (Homo sapiens)
Construct: endogenous in cells
Test: Dihydro-orotate dehydrogenase inhibition assay (U937 membrane preparations, DCIP reduction)
Conditions: U937 membrane preparation
pIC50: −log10 of the molar value.
readout name: pIC50

Previously resolved entries follow.
{"given smiles": "O=C(O)c1ccccc1C(=O)Nc1c(F)cc(-c2cccc(OC3CC3)c2)cc1F", "meas value": 7.55}
{"given smiles": "CC(C)COc1cccc(-c2cc(F)c(NC(=O)c3ccccc3C(=O)O)c(Cl)c2)c1", "meas value": 7.35}
{"given smiles": "O=C(O)c1ccccc1C(=O)Nc1c(F)cc(-c2cccc(OC(F)(F)F)c2)cc1F", "meas value": 6.69}

1 = O=C(O)c1ccccc1C(=O)Nc1c(F)cc(-c2cccc(OC(F)F)c2)cc1F
2 = COc1cccc(-c2cc(Cl)c(NC(=O)c3ccccc3C(=O)O)c(Cl)c2)c1
Q: Of the pair 1 and 2 , name the member with the lesser recorded pIC50. Lab log: write the label of the selected item as the result.
Ans: 2

1 = O=C(O)c1ccccc1C(=O)Nc1c(F)cc(-c2cccc(OC3CCCC3)c2)cc1Cl
2 = O=C(O)c1ccccc1C(=O)Nc1c(F)cc(-c2cccc(OCC(F)(F)F)c2)cc1Cl
3 = CCc1cccc(-c2cc(F)c(NC(=O)c3ccccc3C(=O)O)c(Cl)c2)c1
Q: Rank by pIC50 (largest to smallest). List each label, following the requested order.
Ans: 1, 2, 3

1 = CCCOc1cccc(-c2cc(F)c(NC(=O)c3ccccc3C(=O)O)c(Cl)c2)c1
2 = CCOc1cccc(-c2cc(F)c(NC(=O)c3ccccc3C(=O)O)c(Cl)c2)c1F
Q: Of the pair 1 and 2 , name the member with the lesser recorded pIC50. Lab log: write the label of the selected item as the result.
Ans: 2

====

Biological target: h-DHODH (Homo sapiens, UniProt Q02127)
Construct: endogenous in cells; host or cells: U937 cells (membrane fraction, solubilised with 1% octyl glucoside)
Sequence (Q02127 whole entry): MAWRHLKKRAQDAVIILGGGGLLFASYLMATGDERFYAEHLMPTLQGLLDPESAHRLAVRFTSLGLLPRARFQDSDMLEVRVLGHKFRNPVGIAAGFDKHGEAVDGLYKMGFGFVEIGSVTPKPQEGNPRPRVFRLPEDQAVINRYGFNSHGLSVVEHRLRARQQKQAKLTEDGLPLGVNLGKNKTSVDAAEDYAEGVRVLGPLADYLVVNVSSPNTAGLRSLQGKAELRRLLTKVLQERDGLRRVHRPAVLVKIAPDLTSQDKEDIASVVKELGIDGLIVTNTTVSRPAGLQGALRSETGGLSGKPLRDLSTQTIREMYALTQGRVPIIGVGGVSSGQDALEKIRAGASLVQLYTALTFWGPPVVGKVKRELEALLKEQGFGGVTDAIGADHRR
Test: Dihydro-orotate dehydrogenase inhibition assay (U937 membrane preparations, DCIP reduction)
Assay type: biochemical
Settings: 1 uM; U937 membrane preparation
readout name: inhibition at 1 µM (%)

Previously resolved entries follow.
{"compound": "COc1cc(-c2cc(F)c(NC(=O)c3ccccc3C(=O)O)c(Cl)c2)ccc1Cl [Example 60]", "study target": "h-DHODH (Homo sapiens, UniProt Q02127)", "unit of measurement": "%", "meas value": 41.8}
{"compound": "O=C(O)c1cc(Cl)c(Cl)cc1C(=O)Nc1c(F)cc(-c2ccccc2Cl)cc1F [Example 30]", "study target": "h-DHODH (Homo sapiens, UniProt Q02127)", "unit of measurement": "%", "meas value": 68}
{"compound": "O=C(O)c1ccccc1C(=O)Nc1c(F)cc(-c2ccccc2F)cc1Cl [Example 20]", "study target": "h-DHODH (Homo sapiens, UniProt Q02127)", "unit of measurement": "%", "meas value": 55.4}
{"compound": "CC[S+]([O-])c1cccc(-c2cc(F)c(NC(=O)c3ccccc3C(=O)O)c(F)c2)c1 (centres unmarked) [Example 72]", "study target": "h-DHODH (Homo sapiens, UniProt Q02127)", "unit of measurement": "%", "meas value": 16.9}
{"compound": "COc1cc(-c2cc(F)c(NC(=O)c3ccccc3C(=O)O)c(F)c2)ccc1Cl [Example 59]", "study target": "h-DHODH (Homo sapiens, UniProt Q02127)", "unit of measurement": "%", "meas value": 34.5}

A = COc1ccc(F)c(-c2cc(F)c(NC(=O)c3ccccc3C(=O)O)c(F)c2)c1 [Example 58]
B = CCOc1cccc(-c2cc(F)c(NC(=O)c3ccccc3CO)c(F)c2)c1 [Example 37]
C = CCc1cccc(-c2ccc(NC(=O)c3ccccc3C(=O)O)cc2)c1 [Example 90]
Q: Sort low-to-high on inhibition at 1 µM, please. List each label, following the requested order.
Ans: B, C, A
(B: 14.8%, C: 29.4%, A: 76.1%)

a = COc1cc(F)cc(-c2cc(F)c(NC(=O)c3ccccc3C(=O)O)c(F)c2)c1 [Example 46]
b = CCOc1cccc(-c2cc(F)c(NC(=O)c3ccccc3C(=O)O)c(F)c2)c1 [Example 5]
Q: Of the pair a and b , name the member with the lesser recorded inhibition at 1 µM. Lab log: write the label of the selected item as the result.
Ans: a
(a: 56%, b: 85.7%)

a = CCOc1cccc(-c2cc(F)c(NC(=O)c3ccccc3C(=O)O)c(Cl)c2)c1 [Example 15]
b = O=C(O)c1ccccc1C(=O)Nc1c(F)cc(-c2ccccc2)cc1F [Example 10]
Q: For this pair, a and b , which shows a numerically higher inhibition at 1 µM? Lab log: write the label of the selected item as the result.
Ans: a
(a: 75.5%, b: 46.8%)
